Test name: Volume of distribution at steady state in Han-Wistar rat at 0.9 mg/kg, iv
Assay type: ADME, organism-based
Particulars: in vivo, read-out: Vdss
Outcome measure: Vd (L/kg)
Respond numerically; units are L/kg and should not be typed.

Query string: Name the recorded Vd for `C[C@]12C=CC(=O)C=C1CC[C@@H]1[C@@H]2[C@@H](O)C[C@@]2(C)[C@H]1CC[C@]2(O)C(=O)CO` .
Result string: 1.2

----------
Test name: Clearance in Han-Wistar rat at 0.8 mg/kg, iv
Format: ADME, organism-based
Particulars: in vivo
Outcome measure: clearance (mL/min/kg)
Respond numerically; units are mL/min/kg and should not be typed.

Query string: Name the recorded clearance for `CC(C)[C@H](NC(=O)C(C)(F)F)[C@H](Oc1ccc2c(cnn2-c2ccc(=O)n(C)c2)c1)c1ccccc1` .
Result string: 4.5

----------
Measured target: Glucocorticoid receptor (Rattus norvegicus, UniProt P06536)
Sequence (P06536 whole entry): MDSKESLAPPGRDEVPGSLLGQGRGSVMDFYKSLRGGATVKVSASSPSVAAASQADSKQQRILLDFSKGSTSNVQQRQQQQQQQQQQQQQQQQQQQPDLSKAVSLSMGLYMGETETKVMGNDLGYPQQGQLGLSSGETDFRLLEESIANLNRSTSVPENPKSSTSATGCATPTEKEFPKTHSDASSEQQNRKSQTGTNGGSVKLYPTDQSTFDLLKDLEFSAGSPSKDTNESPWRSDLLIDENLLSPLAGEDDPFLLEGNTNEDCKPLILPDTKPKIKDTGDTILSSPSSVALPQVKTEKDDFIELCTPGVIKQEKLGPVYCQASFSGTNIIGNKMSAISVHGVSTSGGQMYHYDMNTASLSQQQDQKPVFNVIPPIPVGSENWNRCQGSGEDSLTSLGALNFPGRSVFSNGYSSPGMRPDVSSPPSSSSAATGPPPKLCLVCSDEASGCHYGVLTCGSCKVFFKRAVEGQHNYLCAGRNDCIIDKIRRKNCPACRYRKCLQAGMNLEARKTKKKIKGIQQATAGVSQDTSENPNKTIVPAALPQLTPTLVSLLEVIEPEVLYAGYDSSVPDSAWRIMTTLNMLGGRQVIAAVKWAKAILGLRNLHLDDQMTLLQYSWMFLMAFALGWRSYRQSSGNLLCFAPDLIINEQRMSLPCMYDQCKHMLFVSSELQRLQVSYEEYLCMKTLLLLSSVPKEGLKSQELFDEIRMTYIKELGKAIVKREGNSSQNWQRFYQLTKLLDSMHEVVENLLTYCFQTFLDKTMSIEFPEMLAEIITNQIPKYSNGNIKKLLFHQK
Test name: Modulation of glucocorticoid receptor in rat whole blood
Outcome measure: IC50 (µM)
Respond numerically; units are µM and should not be typed.

Query string: Name the recorded IC50 for `CC(C)[C@H](NC(=O)C(C)(F)F)[C@H](Oc1ccc2c(cnn2-c2ccc(=O)n(C)c2)c1)c1ccccc1` .
Result string: 0.019

----------
Test name: Clearance in Han-Wistar rat at 0.9 mg/kg, iv
Assay type: ADME, organism-based
Particulars: in vivo
Outcome measure: clearance (mL/min/kg)
Respond numerically; units are mL/min/kg and should not be typed.

Query string: Name the recorded clearance for `C[C@]12C=CC(=O)C=C1CC[C@@H]1[C@@H]2[C@@H](O)C[C@@]2(C)[C@H]1CC[C@]2(O)C(=O)CO` .
Result string: 90
